Target: Cytochrome P450 1A2 (Homo sapiens)
Assay: Cytochrome panel assay with activity outcomes
Settings: recombinant CYP, pro-luciferin dealkylation, luminescence, p450-cyp1a2; series mostly up to 57.1 µM
Out of some 16,000 compounds screened, about 5,700 (36%) were called active. Not shown: some 24% with an inconclusive outcome. The call rests on the fitted dose curve; in most records, active means well fitted curve in the direction sought with a large enough effect; inconclusive means small, poorly fitted or top-dose-only effect, or effect the other way; inactive means no such curve, though single readings can be large or run the other way. The list shows a part of the results.
Possible outcomes: T for active, F for inactive

[[record]]
structure_smiles_string = "Cc1noc(C)c1C(=O)N1CCC[C@@]2(CCN(Cc3cc(C(F)(F)F)cc(C(F)(F)F)c3)C2)C1"
tgt = "Cytochrome P450 1A2 (Homo sapiens)"
category = "F"

[[record]]
structure_smiles_string = "O=C(NCCCN1CCC(Cc2ccccc2)CC1)C1CCN(S(=O)(=O)N2CCOCC2)CC1"
tgt = "Cytochrome P450 1A2 (Homo sapiens)"
category = "F"

[[record]]
structure_smiles_string = "CN[C@]1(C)[C@H]2CC[C@@H](C2)C1(C)C"
tgt = "Cytochrome P450 1A2 (Homo sapiens)"
category = "F"

[[record]]
structure_smiles_string = "Cc1nc2c(ccc3nc(NC(=O)c4ccc5c(c4)OCCO5)sc32)s1"
tgt = "Cytochrome P450 1A2 (Homo sapiens)"
category = "T"

[[record]]
structure_smiles_string = "COc1cc(C(=O)Nc2nc3ccc4nc(C)sc4c3s2)cc(OC)c1OC"
tgt = "Cytochrome P450 1A2 (Homo sapiens)"
category = "F"


###

Target: Cytochrome P450 1A2 (Homo sapiens) (UniProt P05177)
Sequence (P05177 whole entry, looked up): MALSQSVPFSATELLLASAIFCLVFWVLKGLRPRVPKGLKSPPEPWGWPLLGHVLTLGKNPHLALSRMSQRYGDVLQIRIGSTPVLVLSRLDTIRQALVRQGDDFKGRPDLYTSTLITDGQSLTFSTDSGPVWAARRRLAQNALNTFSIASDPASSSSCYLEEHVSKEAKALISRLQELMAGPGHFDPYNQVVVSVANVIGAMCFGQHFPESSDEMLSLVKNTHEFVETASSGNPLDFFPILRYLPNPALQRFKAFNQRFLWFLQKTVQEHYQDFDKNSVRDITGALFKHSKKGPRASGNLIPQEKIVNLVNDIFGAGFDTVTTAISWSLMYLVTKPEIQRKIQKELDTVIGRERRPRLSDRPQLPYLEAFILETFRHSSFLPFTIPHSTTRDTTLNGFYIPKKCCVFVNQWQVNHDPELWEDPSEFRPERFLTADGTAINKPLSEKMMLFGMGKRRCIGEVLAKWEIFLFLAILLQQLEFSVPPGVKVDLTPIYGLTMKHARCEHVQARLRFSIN
Assay: Cytochrome panel assay with activity outcomes
Settings: recombinant CYP, pro-luciferin dealkylation, luminescence, p450-cyp1a2; series mostly up to 57.1 µM
The campaign covered roughly 16,000 compounds. About 5,700 (36%) were called active. Another 24% or so got no clear call; they are omitted. Calls come from the whole dose curve; as a rule, active = well fitted curve in the direction sought with a large enough effect; inconclusive = small, poorly fitted or top-dose-only effect, or effect the other way; inactive = no such curve, though single readings can be large or run the other way. Some of the results follow.
Possible outcomes: YES = active, NO = inactive

[[record]]
structure_smiles_string = "Cc1ncc([N+](=O)[O-])n1CC(=O)NCc1ccccc1"
category = "NO"

[[record]]
structure_smiles_string = "C[C@]1(C2CCCC2)Cc2cc(OCC(=O)O)c(Cl)c(Cl)c2C1=O"
category = "NO"

[[record]]
structure_smiles_string = "Cc1cc2c(ncn2Cc2ccccc2)c([N+](=O)[O-])c1C"
category = "YES"

[[record]]
structure_smiles_string = "COCCn1c(=O)cnc2cnc(Oc3cccc(Cl)c3)nc21"
category = "YES"

[[record]]
structure_smiles_string = "Cc1nn(CC(=O)NCc2ccccc2)c(C)c1[N+](=O)[O-]"
category = "NO"

[[record]]
structure_smiles_string = "COCCn1c(=O)c(-c2ccccc2)nc2cnc(Oc3ccccc3)nc21"
category = "YES"


###

Molecular target: Cytochrome P450 1A2 (Homo sapiens)
Assay: Cytochrome panel assay with activity outcomes
Conditions: recombinant CYP, pro-luciferin dealkylation, luminescence, p450-cyp1a2; series mostly up to 57.1 µM
Among all 16,000 compounds or so, about 5,700 (36%) were called active. Roughly 24% stayed inconclusive and do not appear here. Calls come from the whole dose curve; as a rule, active = well fitted curve in the direction sought with a large enough effect; inconclusive = small, poorly fitted or top-dose-only effect, or effect the other way; inactive = no such curve, though single readings can be large or run the other way. The list shows a part of the results.
Possible outcomes: label 1 for active, label 0 for inactive

[[record]]
molecule = "O=C(CSc1nc(-c2ccccc2)cs1)N1CCc2ccccc21"
category = "label 1"

[[record]]
molecule = "CC(=O)Nc1ccc(S(=O)(=O)NC2(C(F)(F)F)NC(=O)N(c3ccc(Cl)cc3)C2=O)cc1 (stereo not given)"
category = "label 0"

[[record]]
molecule = "O=C(CC1C(=O)N(c2ccc(Cl)cc2)C(=S)N1CCc1ccncc1)Nc1ccc(F)cc1 (stereo not given)"
category = "label 1"

[[record]]
molecule = "Cc1cc(C)c(S(=O)(=O)N2CCCCC2)c(C)c1N(C)S(=O)(=O)c1ccccc1"
category = "label 0"

[[record]]
molecule = "CN1C(=O)OC(C)(C)C1=O"
category = "label 0"

[[record]]
molecule = "COC(=O)c1c(-c2cc(OC)c(OC)c(OC)c2)c2ccnc(OCc3ncccn3)c2c(=O)n1Cc1ccnc(C)c1"
category = "label 0"

[[record]]
molecule = "CCCS(=O)(=O)N1CCCC(C(=O)NCCN2CCOCC2)C1 (stereo not given)"
category = "label 0"

[[record]]
molecule = "O=C(CSc1nnc(CNc2ccccc2)o1)N1CCCc2ccccc21"
category = "label 1"

[[record]]
molecule = "O=C(O)CCC(=O)N1CCc2cc(S(=O)(=O)NCc3cccs3)ccc21"
category = "label 0"

[[record]]
molecule = "CCN(CC)C(=O)CSc1nnc(C2CCCCC2)o1"
category = "label 0"

